biological target: SHP2 (Homo sapiens (Human), UniProt Q06124); assay: SHP2 allosteric inhibition assay (DiFMUP substrate, bisphos-IRS1 peptide activation); details: 0.33 nM SHP2, 0.5 μM bisphos-IRS1 peptide, 100 uM DiFMUP, room temperature
Sequence (Q06124 whole entry): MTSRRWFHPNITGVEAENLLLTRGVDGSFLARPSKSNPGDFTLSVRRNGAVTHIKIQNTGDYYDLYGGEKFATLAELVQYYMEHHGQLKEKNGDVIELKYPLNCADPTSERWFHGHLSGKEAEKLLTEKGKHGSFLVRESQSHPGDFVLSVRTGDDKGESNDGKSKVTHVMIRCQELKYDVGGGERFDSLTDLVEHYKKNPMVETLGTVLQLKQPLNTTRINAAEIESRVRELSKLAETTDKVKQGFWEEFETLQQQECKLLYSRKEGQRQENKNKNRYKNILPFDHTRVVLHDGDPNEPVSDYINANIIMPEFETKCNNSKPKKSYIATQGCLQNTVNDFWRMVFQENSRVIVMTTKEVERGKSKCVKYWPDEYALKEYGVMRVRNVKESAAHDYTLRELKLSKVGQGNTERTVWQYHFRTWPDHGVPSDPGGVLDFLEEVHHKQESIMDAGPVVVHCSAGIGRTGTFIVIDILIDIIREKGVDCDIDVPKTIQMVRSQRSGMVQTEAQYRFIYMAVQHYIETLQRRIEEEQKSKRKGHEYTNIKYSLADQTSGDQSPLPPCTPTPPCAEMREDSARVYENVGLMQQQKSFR
result-type: pIC50
Answers are plain numbers, as −log10 of the molar value.

{"columns": ["compound", "result-type", "reported-measurement"],
 "data": [
  ["C[C@@H]1OCC2(CCN(c3ncc(Sc4ccnc5c4OC[C@@H]4C[C@H](F)CN54)nc3CO)CC2)[C@@H]1N [Compound 3]", "pIC50", 7.89],
  ["C[C@@H]1OCC2(CCN(c3ncc(Sc4ccnc5c4OC[C@@H]4C[C@H](OC6COC6)CN54)nc3CO)CC2)[C@@H]1N [Compound 13]", "pIC50", 8.10]
]}

Okay, here is my list. What is pIC50 for each of these?
1. C[C@@H]1OCC2(CCN(c3ncc(Sc4ccnc5c4OC[C@@H]4C[C@H](OCC6CC6)CN54)nc3CO)CC2)[C@@H]1N [Compound 16]
2. C[C@@H]1OCC2(CCN(c3ncc(Sc4ccnc5c4OC[C@@H]4CCCN54)nc3CO)CC2)[C@@H]1N [Compound 1]
3. CO[C@@H]1C[C@H]2COc3c(Sc4cnc(N5CCC6(CC5)CO[C@@H](C)[C@H]6N)c(CO)n4)ccnc3N2C1 [Compound 6]
4. COCOC[C@H]1C[C@H]2COc3c(Sc4ncc(N5CCC6(CC5)Cc5ncccc5[C@H]6N)nc4N)ccnc3N2C1 [Compound 47]
5. C[C@@H]1OCC2(CCN(c3ncc(Sc4ccnc5c4OC[C@@H]4C[C@@H](n6cccn6)CN54)nc3CO)CC2)[C@@H]1N [Compound 25]

[8.52, 8.52, 8.22, 8.08, 7.96]
